# Protocol text: HUVEC growth inhibition – cell-based, human, primary screen (AID 575);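 also: 100% = median of untreated cell wells with 0.1% DMSO on each plate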
# Settings: HUVEC proliferation, CellTiter-Glo luminescence, 72 h; at 10 µM; active compounds read low

{"Compound": "CC1=C(C(=O)OC2CCCCCC2)C(c2ccc(C)o2)C2=C(CCCC2=O)N1 (stereo unspecified)", "viability (%)": 102}
{"Compound": "Cc1nc2ccc(Br)cn2c1NC(C)(C)C", "viability (%)": 101}
{"Compound": "Cc1ccc(Cn2c(CN3CCOCC3)nc3c2c(=O)n(C)c(=O)n3C)cc1", "viability (%)": 90.5}
{"Compound": "CN1CCN(C(=O)C2CCN(S(=O)(=O)c3ccc4c(c3)oc(=O)n4C)CC2)CC1", "viability (%)": 94.4}
{"Compound": "Cc1ccc(C(=O)Nc2c(C(=O)N3CCOCC3)cnn2-c2ccccc2)cc1", "viability (%)": 94.5}
{"Compound": "CCCC(=O)N1CC(=O)Nc2ccc(C)cc2C1c1ccc(F)cc1 (stereo unspecified)", "viability (%)": 79.9}
{"Compound": "CC(C)C(NC(=O)c1ccc(S(=O)(=O)N2CCOCC2)cc1)c1nc2ccccc2[nH]1 (stereo unspecified)", "viability (%)": 72.5}
{"Compound": "CCCN(CCC)CCNC(=O)c1cc2c(=O)n(C)c3ccccc3c2n1C", "viability (%)": 57.5}
{"Compound": "CCN1CCN(CCCNC(=O)c2cc3sccc3n2CC)CC1", "viability (%)": 99}
{"Compound": "CC(C)=CC(=O)OCC(=O)NC(=O)NC(C)(C)C", "viability (%)": 103}
{"Compound": "Cc1cccc(C2CC(c3ccc(Cl)cc3)Nc3nc(N)nn32)c1 (stereo unspecified)", "viability (%)": 103}
{"Compound": "CCOC(=O)N1CCN(C(=O)CSc2nnc(COc3ccccc3)o2)CC1", "viability (%)": 95.2}
{"Compound": "COc1ccc2[nH]c(C)c(CCN3C(=O)OC(C)(C)C3(C)O)c2c1 (stereo unspecified)", "viability (%)": 102}
{"Compound": "CCn1c(=O)cc(OCC(=O)Nc2nc(C)cs2)c2ccccc21", "viability (%)": 61.6}
{"Compound": "CN1CCN(Cc2nc3c(c(=O)[nH]c(=O)n3C)n2CCc2ccccc2)CC1", "viability (%)": 91.2}
{"Compound": "COc1ccc(N(CC(=O)Nc2cc(C)ccc2C)S(=O)(=O)c2c(C)nn(C)c2C)cc1", "viability (%)": 73.8}
{"Compound": "COc1ccc(-n2c(Cc3cccn3C)nnc2SCC(=O)Nc2cccc(Cl)c2)cc1", "viability (%)": 63.3}
{"Compound": "NC(=O)CSc1cn(CCNC(=O)c2cccs2)c2ccccc12", "viability (%)": 99.4}
{"Compound": "O=C(NC1CCCC1)C1CCCN(S(=O)(=O)c2cccc3cccnc23)C1 (stereo unspecified)", "viability (%)": 115}
{"Compound": "CCOc1ccc(NC(=O)CN(c2cc(C)cc(C)c2)S(=O)(=O)c2c(C)noc2C)cc1", "viability (%)": 85.2}
{"Compound": "COc1ccc(OC)c(NC(=O)c2cn(C)c(=O)c3cc(OC)c(OC)cc23)c1", "viability (%)": 97.2}
